The measured values listed here are drawn from patent US4748185A.

I'd appreciate it if you could supply log10(ED50) values for the items below.
Tested on: prothrombin time
Experiment: Anticoagulant activity by measurement of the prothrombin time (3-day ED50, intraperitoneal, modified one-step method of Quick)
Assay type: in vivo, Wistar-strain male rats
Conditions: Rattus norvegicus, S100, ip, 72 h; prothrombin time ED50; single intraperitoneal injection, male Wistar rats, blood taken three days after injection; 0% = 12 s, 100% = 212 s; read-out: 3-day ED50
Heads up: the numbers are on a log10 scale; they represent ED50 in mg/kg.

QUERY: Name the recorded log10(ED50) of O=c1oc2ccccc2c(O)c1C1CC(c2ccc(OCc3ccc(-c4ccccc4)cc3)cc2)Cc2ccccc21 (stereo not shown) , assay system prothrombin time.
RESULT: -0.40

QUERY: Name the recorded log10(ED50) of O=c1oc2ccccc2c(O)c1C1CC(c2ccc(-c3ccc(-c4ccccc4)cc3)cc2)Cc2ccccc21 (stereo not shown) , assay system prothrombin time.
RESULT: -0.26

QUERY: Name the recorded log10(ED50) of O=c1oc2ccccc2c(O)c1C1CC(c2ccc(-c3ccc(OCc4ccc(C(F)(F)F)cc4)cc3)cc2)Cc2ccccc21 (stereo not shown) , assay system prothrombin time.
RESULT: -0.40

QUERY: Name the recorded log10(ED50) of O=c1oc2ccccc2c(O)c1C1CC(c2ccc(Oc3ccc(-c4ccccc4)cc3)cc2)Cc2ccccc21 (stereo not shown) , assay system prothrombin time.
RESULT: -0.26

QUERY: Name the recorded log10(ED50) of O=c1oc2ccccc2c(O)c1C1CC(c2ccc(Cc3ccc(-c4ccc(Br)cc4)cc3)cc2)Cc2ccccc21 (stereo not shown) , assay system prothrombin time.
RESULT: -0.43

QUERY: Name the recorded log10(ED50) of CC(=O)CC(c1ccccc1)c1c(O)c2ccccc2oc1=O (stereo not drawn) [Warfarin, 3-(α-acetonylbenzyl)-4-hydroxycoumarin, reference compound] , assay system prothrombin time.
RESULT: 0.72

QUERY: Name the recorded log10(ED50) of O=c1oc2ccccc2c(O)c1C1CC(c2ccc(-c3ccc(OCc4ccc(Br)cc4)cc3)cc2)Cc2ccccc21 (stereo not shown) , assay system prothrombin time.
RESULT: -0.13
